- Tested on: NANOG
- protocol.details: qRT-PCR gene expression in hES cells: NANOG
- Format: cell-based
- conditions: Homo sapiens, 1 mM, 72 hours, normalized to β-ACTIN, read-out: Expression relative to control, NANOG
experimental.readout: fold induction at 1000 µM
Would you mind answering with just the numeric figure?

Record O=C(O)CCCC[C@H]1CCSS1 (single isomer, unassigned) , field fold induction at 1000 µM: 0.717

Record Cc1cncs1 , field fold induction at 1000 µM: 1.14

Record CCOC(=O)Cc1nnn[nH]1 [Compound 6, ethyl 2-(1H-tetrazol-5-yl)acetate] , field fold induction at 1000 µM: 0.867

Record O=C(O)Cc1nnn[nH]1 , field fold induction at 1000 µM: 0.849

Record Cc1nnn[nH]1 , field fold induction at 1000 µM: 0.778

Record Nc1nnn[nH]1 , field fold induction at 1000 µM: 0.917

Record CSc1nnn[nH]1 , field fold induction at 1000 µM: 0.844

Record Cn1c(-c2ccccc2)cnc1S , field fold induction at 1000 µM: 1.16
